- measurement.target: rhinovirus 3C protease, serotype 14 (Human rhinovirus 14, UniProt P03303)
- Construct: Recombinant rhinovirus 3C proteases; made in house
- Sequence (P03303 1538-1719): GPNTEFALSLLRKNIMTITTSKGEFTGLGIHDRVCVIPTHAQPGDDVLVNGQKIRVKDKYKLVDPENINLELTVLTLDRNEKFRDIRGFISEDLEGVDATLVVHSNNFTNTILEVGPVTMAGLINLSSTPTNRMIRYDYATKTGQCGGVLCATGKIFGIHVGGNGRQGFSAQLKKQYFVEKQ
- protocol.summary: Inhibition of rhinovirus 3C protease (FRET assay, enzyme start)
- Assay type: biochemical
- condition.details: HRV-14 3C protease, progress curves, read-out: Kobs/I
readout.type: kinact/KI (M⁻¹ s⁻¹)

A selection of reference data follows.
CCOC(=O)/C=C/[C@H](CCC(N)=O)NC(=O)[C@H](Cc1ccccc1)NC(=O)c1ccc(C(C)CC(F)(F)F)[nH]1 (stereo partly shown) [Compound 13] | 6570
CCOC(=O)/C=C/[C@H](C[C@@H]1CCNC1=O)NC(=O)[C@H](Cc1ccc(F)cc1)NC(=O)c1cc2ccccc2[nH]1 [Compound 42] | 42

A = CCOC(=O)/C=C/[C@H](CCC(N)=O)NC(=O)[C@@H](CC(=O)c1ccc(-c2ccccc2C(F)(F)F)[nH]1)Cc1ccccc1 [Compound 40]
B = CCOC(=O)/C=C/[C@H](C[C@@H]1CCNC1=O)NC(=O)CCC(=O)c1ccccc1 [Compound 44]
Given the listed items, does A or B have the lesser reported kinact/KI? Your choice should be expressed through its label.
B
(B: 1030 M⁻¹ s⁻¹, A: 3180 M⁻¹ s⁻¹)

----------
- Test system: HRV-14
- protocol.summary: Antirhinoviral H1-HeLa cell culture assay (XTT cell protection)
- Assay type: cell-based, human rhinovirus
- condition.details: Rhinovirus B, HRV14, H1-HeLa, HRV-14, H1-HeLa cells
pEC50: −log10 of the molar value.
readout.type: pEC50

A selection of reference data follows.
CCOC(=O)/C=C/[C@H](C[C@@H]1CCNC1=O)NC(=O)[C@H](CC)CC(=O)c1ccc(-c2ccccc2C(F)(F)F)[nH]1 | 6.58
CCOC(=O)/C=C/[C@H](CCC(N)=O)NC(=O)[C@H](Cc1ccccc1)NC(=O)c1ccc(-c2cncc3ccccc23)[nH]1 | 5.96

a = CCOC(=O)/C=C/[C@H](CCC(N)=O)NC(=O)[C@H](Cc1ccccc1)N(C)C(=O)c1ccc(-c2ccccc2C(F)(F)F)[nH]1
b = O=C1OCC/C1=C\[C@H](C[C@@H]1CCNC1=O)NC(=O)[C@H](Cc1ccc(F)cc1)NC(=O)c1ccc(-c2ccccc2)[nH]1
c = CCOC(=O)/C=C/[C@H](CCC(N)=O)NC(=O)[C@H](Cc1ccccc1)NC(=O)c1ccc(-c2ccccc2C(F)(F)F)[nH]1
d = CCOC(=O)/C=C/[C@H](C[C@@H]1CCNC1=O)NC(=O)[C@@H](CC(=O)c1ccc(-c2ccccc2C(F)(F)F)[nH]1)Cc1ccccc1
Order these by pEC50, descending, and give the full ranking. Field: ranking. Enter the labels in the order requested.
c, d, a, b

----------
- System: HRV-1A
- protocol.summary: Antirhinoviral H1-HeLa cell culture assay (XTT cell protection)
- Format: cell-based, human rhinovirus
- condition.details: Rhinovirus A, HRV1A, H1-HeLa cells
pEC50: −log10 of the molar value.
readout.type: pEC50

A selection of reference data follows.
CCOC(=O)/C=C/[C@H](C[C@@H]1CCNC1=O)NC(=O)[C@H](Cc1ccccc1)NC(=O)c1ccc(-c2ccccc2C(F)(F)F)[nH]1 | 6.67
CCOC(=O)/C=C/[C@H](C[C@@H]1CCNC1=O)NC(=O)[C@H](Cc1ccccc1)NC(=O)c1ccc(-c2cccc3ccccc23)[nH]1 | 7.05

1 = C#CC[C@H](NC(=O)c1ccc(-c2ccccc2C(F)(F)F)[nH]1)C(=O)N[C@H](/C=C/C(=O)OCC)C[C@@H]1CCNC1=O
2 = C#CC[C@H](CC(=O)c1ccc(-c2ccccc2C(F)(F)F)[nH]1)C(=O)N[C@H](/C=C/C(=O)OCC)C[C@@H]1CCNC1=O
3 = C#CC[C@H](CC(=O)c1ccc(-c2ccccc2C)[nH]1)C(=O)N[C@H](/C=C/C(=O)OCC)C[C@@H]1CCNC1=O
4 = C#CC[C@H](CC(=O)c1ccc(-c2ccccc2Cl)[nH]1)C(=O)N[C@H](/C=C/C(=O)OCC)C[C@@H]1CCNC1=O
Order these by pEC50, descending, and give the full ranking. Field: ranking. Enter the labels in the order requested.
1, 2, 3, 4
(1: 7.27, 2: 6.84, 3: 6.47, 4: 6.27)
